I'd appreciate it if you could supply AUC(0-inf) values for the items below.
Experiment: AUC (infinity) in ICR mouse at 50 mg/kg, po
Format: ADME, organism-based
Design: dose 50 mg/kg, time infinity, route oral
Details: in vivo
Write the numeric value and follow it with the unit.

Would you kindly share the measured AUC(0-inf) for C[C@@H]1CN(c2cc(F)c3c(c2)N(C)C(=O)C32CCN(c3nc4c(c(=O)[nH]3)CCCN4C)CC2)C[C@H](C)O1 ?
594 µM·h

What would you report for CN1CCN(c2cc(F)c3c(c2)N(C)C(=O)C32CCN(c3nc4c(c(=O)[nH]3)CCCN4C)CC2)CC1 ?
77 µM·h
